- target: T1, huZIP12-ECD-GST (human, UniProt Q504Y0 24-202)
- T1 construct: also called hZIP12-ECD-GST; human ZIP12-ECD-GST; not shown: glutathione S-transferase (GST) tag
- T1 sequence (Q504Y0 24-202): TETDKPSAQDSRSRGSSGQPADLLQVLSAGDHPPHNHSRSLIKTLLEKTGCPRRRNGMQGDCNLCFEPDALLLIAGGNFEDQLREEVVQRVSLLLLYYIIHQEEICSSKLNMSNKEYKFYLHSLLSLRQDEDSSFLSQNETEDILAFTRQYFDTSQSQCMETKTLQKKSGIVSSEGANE
- method-description: SPR single cycle kinetics (Biacore): mAb captured on protein A, huZIP12-ECD-GST injected at 3.12-800 nM
measure: kon

{"binder": "H3_M105P_VL-par (antibody, V domains shown, Fc null human IgG1 / human kappa) VH: QVQLVESGGGVVQPGRSLRLSCAASGFTFSDYGMHWVRQAPGKGLEWVAYISSGGTTIYYADTVKGRFTISRDNSKNTLYLQMNSLRAEDTAVYYCARWTNLYAPDYWGQGTTVTVSS VL: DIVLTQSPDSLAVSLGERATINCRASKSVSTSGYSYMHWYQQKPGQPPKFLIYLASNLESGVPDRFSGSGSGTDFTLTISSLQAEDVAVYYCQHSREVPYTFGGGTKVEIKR", "endpoint-result": "24700 M⁻¹ s⁻¹"}
{"binder": "51B12_VH_L1 (antibody, V domains shown, Fc null human IgG1 / human kappa) VH: QVQLVESGGGVVQPGRSLRLSCAASGFTFSDYGMHWVRQAPGKGLEWVAYISSGGTTIYYADTVKGRFTISRDNSKNTLYLQMNSLRAEDTAVYYCARWTNLYAMDYWGQGTTVTVSS VL: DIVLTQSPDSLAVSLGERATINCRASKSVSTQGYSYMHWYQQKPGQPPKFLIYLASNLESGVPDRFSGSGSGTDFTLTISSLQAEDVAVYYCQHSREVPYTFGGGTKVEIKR", "endpoint-result": "29300 M⁻¹ s⁻¹"}
{"binder": "H3_W99H_VL-par (antibody, V domains shown, Fc null human IgG1 / human kappa) VH: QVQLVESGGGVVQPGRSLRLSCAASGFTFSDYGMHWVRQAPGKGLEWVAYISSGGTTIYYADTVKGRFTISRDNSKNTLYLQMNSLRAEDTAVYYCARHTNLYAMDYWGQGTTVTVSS VL: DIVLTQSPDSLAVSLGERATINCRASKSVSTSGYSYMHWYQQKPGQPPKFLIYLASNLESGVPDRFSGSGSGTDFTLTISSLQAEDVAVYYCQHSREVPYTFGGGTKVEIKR", "endpoint-result": "97100 M⁻¹ s⁻¹"}
{"binder": "H2_K65P_L2 (antibody, V domains shown, Fc null human IgG1 / human kappa) VH: QVQLVESGGGVVQPGRSLRLSCAASGFTFSDYGMHWVRQAPGKGLEWVAYISSGGTTIYYADTVPGRFTISRDNSKNTLYLQMNSLRAEDTAVYYCARWTNLYAMDYWGQGTTVTVSS VL: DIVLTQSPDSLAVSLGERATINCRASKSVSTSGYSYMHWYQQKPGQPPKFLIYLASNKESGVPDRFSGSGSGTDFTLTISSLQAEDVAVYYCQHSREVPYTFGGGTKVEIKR", "endpoint-result": "23200 M⁻¹ s⁻¹"}
{"binder": "51B12_VH_L2 (antibody, V domains shown, Fc null human IgG1 / human kappa) VH: QVQLVESGGGVVQPGRSLRLSCAASGFTFSDYGMHWVRQAPGKGLEWVAYISSGGTTIYYADTVKGRFTISRDNSKNTLYLQMNSLRAEDTAVYYCARWTNLYAMDYWGQGTTVTVSS VL: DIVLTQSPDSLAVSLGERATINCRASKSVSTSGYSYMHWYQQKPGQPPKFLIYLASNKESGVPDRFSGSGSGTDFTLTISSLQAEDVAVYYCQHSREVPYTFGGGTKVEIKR", "endpoint-result": "25600 M⁻¹ s⁻¹"}
{"binder": "H2_Y60K_VL-par (antibody, V domains shown, Fc null human IgG1 / human kappa) VH: QVQLVESGGGVVQPGRSLRLSCAASGFTFSDYGMHWVRQAPGKGLEWVAYISSGGTTIYKADTVKGRFTISRDNSKNTLYLQMNSLRAEDTAVYYCARWTNLYAMDYWGQGTTVTVSS VL: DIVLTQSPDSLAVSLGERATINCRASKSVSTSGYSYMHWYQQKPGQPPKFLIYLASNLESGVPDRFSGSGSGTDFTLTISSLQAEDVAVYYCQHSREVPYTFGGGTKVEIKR", "endpoint-result": "36700 M⁻¹ s⁻¹"}
{"binder": "H3_M105P_L2 (antibody, V domains shown, Fc null human IgG1 / human kappa) VH: QVQLVESGGGVVQPGRSLRLSCAASGFTFSDYGMHWVRQAPGKGLEWVAYISSGGTTIYYADTVKGRFTISRDNSKNTLYLQMNSLRAEDTAVYYCARWTNLYAPDYWGQGTTVTVSS VL: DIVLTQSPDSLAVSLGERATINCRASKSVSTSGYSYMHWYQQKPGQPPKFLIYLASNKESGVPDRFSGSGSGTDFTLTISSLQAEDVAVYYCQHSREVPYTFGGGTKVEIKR", "endpoint-result": "21500 M⁻¹ s⁻¹"}
{"binder": "H2_T56H_L1 (antibody, V domains shown, Fc null human IgG1 / human kappa) VH: QVQLVESGGGVVQPGRSLRLSCAASGFTFSDYGMHWVRQAPGKGLEWVAYISSGGHTIYYADTVKGRFTISRDNSKNTLYLQMNSLRAEDTAVYYCARWTNLYAMDYWGQGTTVTVSS VL: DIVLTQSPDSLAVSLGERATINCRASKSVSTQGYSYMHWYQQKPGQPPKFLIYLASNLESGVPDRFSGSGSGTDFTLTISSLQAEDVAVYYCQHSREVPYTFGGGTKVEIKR", "endpoint-result": "26400 M⁻¹ s⁻¹"}
{"binder": "H2_T63Y_VL-par (antibody, V domains shown, Fc null human IgG1 / human kappa) VH: QVQLVESGGGVVQPGRSLRLSCAASGFTFSDYGMHWVRQAPGKGLEWVAYISSGGTTIYYADYVKGRFTISRDNSKNTLYLQMNSLRAEDTAVYYCARWTNLYAMDYWGQGTTVTVSS VL: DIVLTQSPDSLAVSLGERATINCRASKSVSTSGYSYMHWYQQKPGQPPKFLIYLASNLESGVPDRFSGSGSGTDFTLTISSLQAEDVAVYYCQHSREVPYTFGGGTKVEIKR", "endpoint-result": "29600 M⁻¹ s⁻¹"}
{"binder": "H2_G66Q_L1 (antibody, V domains shown, Fc null human IgG1 / human kappa) VH: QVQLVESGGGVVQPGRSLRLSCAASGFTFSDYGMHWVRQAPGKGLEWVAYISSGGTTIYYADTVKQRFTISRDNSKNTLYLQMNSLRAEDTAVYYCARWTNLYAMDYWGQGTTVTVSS VL: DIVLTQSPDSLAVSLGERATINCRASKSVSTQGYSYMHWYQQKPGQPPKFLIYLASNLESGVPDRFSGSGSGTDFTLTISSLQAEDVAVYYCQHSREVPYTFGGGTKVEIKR", "endpoint-result": "34600 M⁻¹ s⁻¹"}
